Every entry's value here was drawn from the supplement of paper PMC6555819.

system: RARb homodimer (NR concentration 270 nM); assay: PBM binding z-score (relative to random genomic background probes); higher = stronger binding; sequences stand for … in GC…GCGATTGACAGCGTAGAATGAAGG
Label t for high-side PBM binding z-score (at or above 0.6) and f for low-side PBM binding z-score (below it).

Worked examples follow.
# item sequence, answer label
measured = [
    ("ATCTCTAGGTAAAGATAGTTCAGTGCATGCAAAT", "t"),
    ("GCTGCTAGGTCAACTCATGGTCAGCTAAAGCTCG", "t"),
    ("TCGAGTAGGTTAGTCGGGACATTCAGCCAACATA", "f"),
]

Shift focus to the following entry.
Please tell me: is the sequence `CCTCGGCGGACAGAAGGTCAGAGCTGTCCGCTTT` at or over 0.6 in terms of PBM binding z-score?
t
